test.system: xPSM (extracellular portion of PSMA) (Homo sapiens (LNCaP cDNA), UniProt Q04609 Q04609:44-750)
Sequence (Q04609 44-750, one chain of several): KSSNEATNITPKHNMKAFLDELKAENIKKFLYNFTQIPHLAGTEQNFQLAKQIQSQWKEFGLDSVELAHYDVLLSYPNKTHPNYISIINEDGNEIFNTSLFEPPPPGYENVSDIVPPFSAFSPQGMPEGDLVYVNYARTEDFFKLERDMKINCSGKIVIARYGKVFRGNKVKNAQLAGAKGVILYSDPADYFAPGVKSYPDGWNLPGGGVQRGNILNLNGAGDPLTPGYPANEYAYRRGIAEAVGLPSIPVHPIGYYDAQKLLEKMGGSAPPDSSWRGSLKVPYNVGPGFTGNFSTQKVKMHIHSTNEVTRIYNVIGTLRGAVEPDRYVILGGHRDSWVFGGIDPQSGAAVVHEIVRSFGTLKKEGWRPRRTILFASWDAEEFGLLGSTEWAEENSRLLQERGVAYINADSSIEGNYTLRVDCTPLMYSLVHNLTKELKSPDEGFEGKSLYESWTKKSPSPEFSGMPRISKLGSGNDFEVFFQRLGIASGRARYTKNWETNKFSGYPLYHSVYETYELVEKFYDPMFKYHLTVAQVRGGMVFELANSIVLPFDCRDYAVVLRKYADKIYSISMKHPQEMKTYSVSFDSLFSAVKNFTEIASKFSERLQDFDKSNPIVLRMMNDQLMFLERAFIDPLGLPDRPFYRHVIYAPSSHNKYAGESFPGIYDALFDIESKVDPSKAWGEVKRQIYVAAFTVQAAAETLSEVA
experiment.notes: inhibition; competitive NAALADase inhibition, +/-7.8 nM, 37 C
condition.description: tags: S-tag fusion released by enterokinase; baculovirus Sf-9 secreted
pKi: −log10 of the molar value.
recorded.endpoint: pKi

>>> reported_result("xPSM1.A10-3 (ssRNA, 2'-F all pyrimidines; purines 2'-OH) RNA: GGGAGGACGAUGCGGAUCAGCCAUGUUUACGUCACUCCUUGUCAAUCCUCAUCGGC")
7.69
